TARGET OR TEST SYSTEM: α2
RUN DESCRIPTION: Compound Binding Profiles: α2
CONDITIONS: read-out: α2 binding class
READOUT NAME: Ki

Lookup: Query (compound): O=C1Cc2cc(CCN3CCN(c4nsc5ccccc45)CC3)c(Cl)cc2N1 [Ziprasidome, reference compound] ; field requested: Ki
Found: 0.1 to 1 µM

* * *

RUN DESCRIPTION: Oral pharmacokinetics in rodents
CONDITIONS: in vivo, oral administration 5 mg/kg
READOUT NAME: half-life (h)
Give just the numeric value; h need not be written.

Lookup: Query (compound): COc1cc(Cl)cc(C(C)Nc2cc(N3CCNCC3)ccc2S(C)(=O)=O)c1OC.Cl (stereo not shown) ; field requested: half-life
Found: 1.5

The values you see were collected from patent US8604021B2.
